molecular target: HCV NS3/4A PR (S139A) (Hepatitis C virus subtype 1a, UniProt A8DG50, A1066T/I1043Q/I1044E/L1039E/L1040E/L1047Q/S1165A, form not given); assay: Phage ELISA; assay type: binding; conditions: phage ELISA signal with simeprevir divided by signal without simeprevir
observation_type: Binding fold change [(HCV protease + Simeprevir binding)/HCV protease alone]
# output: bare number, no unit

1) PRSIM_75: scFv PRSIM binding molecule, SEQ ID NO: 15 (protein, PRSIM_75) scFv: EVQLVQSGAEVKKPGSSVKVSCKASGGSFNSYTLDWVRQAPGQGLEWMGGIIPVFGSPNYGQKFQGRVTITADESTSTAYMELSSLKSDDTAVYYCARGLVYQPLDSWGRGTLVTVSSGGGGSGGGGSGGGGSAQAVLTQPSSASGTPGQRVTISCSGSSSNIGSYTVNWYQQFPGTAPKLLIYSNTQRPSGVPDRFSGSKSGTSASLAISGLQSEDEADYYCAAWDDSLNGWVFGGGTKVTVL : 6.9
2) PRSIM_67: scFv PRSIM binding molecule, SEQ ID NO: 13 (protein, PRSIM_67) scFv: EVQLVQSGAEVKKPGAAVRISCKTSGYVFTSYYVHWVRQAPGQGLEWMGVINPSGGNTNYAQKFQDRVTMTRDTSTTTVYMELSSLMFDDTAVYYCAKRDYGGPLANWGRGTLVTVSSGGGGSGGGGSGGGGSALSYELTQPPSVSEAPRQRVTISCSGSSSNIGNNAVNWYQQLPGKAPKLLIFYDDLLPSGVSDRFSGSKSGTSASLAISGLQSEDEADYYCAAWDDSLNGLVFGTGTKLTVL : 12.7
3) PRSIM_72: scFv PRSIM binding molecule, SEQ ID NO: 14 (protein, PRSIM_72) scFv: QVQLVQSGAEVKKPGSSVKVSCKASGGTFSSYAISWVRQAPGQGLEWMGGIIPIFGTANYAQKFQGRVTITADESTSTAYMELSSLRSEDTAVYYCARGMAHFYQFDLWGQGTLVTVSSGGGGSGGGGSGGGGSAQSVLTQPPSASGTPGQRVTISCSGSSSNIGSNTVNWYQQLPGTAPKLLIYSNNQRPSGVPDRFSGSKSGTSASLAISGLQSEDEADYYCAAGDHDHEHVVFGGGTKLTVL : 12.5
4) PRSIM_04: scFv PRSIM binding molecule, SEQ ID NO: 11 (protein, PRSIM_04) scFv: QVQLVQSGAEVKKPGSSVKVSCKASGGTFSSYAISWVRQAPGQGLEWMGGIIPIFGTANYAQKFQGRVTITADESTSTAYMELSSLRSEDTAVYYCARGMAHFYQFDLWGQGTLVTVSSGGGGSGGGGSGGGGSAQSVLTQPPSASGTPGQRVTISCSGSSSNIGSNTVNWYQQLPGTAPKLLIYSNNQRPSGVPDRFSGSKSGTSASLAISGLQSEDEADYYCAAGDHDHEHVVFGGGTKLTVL : 30.3
5) PRSIM_23: Tn3 protein specific for HCV NS3/4A PR (S139A):simeprevir complex, SEQ ID NO: 5 (protein, PRSIM_23) RLDAPSQIEVKDVTDTTALITWVDPRYDDIWWFELTYGIKDVPGDRTTIKLYLNDPYYSIGNLKPDTEYEVSLISYTGDSYSRSGSNPAKITFKTGL : 23.8

Form: molecule = PRSIM_57: scFv specific for HCV NS3/4A PR (S139A):simeprevir complex, SEQ ID NO: 12 (protein, PRSIM_57) scFv: QVQLVQSGAEVKKPGSSVKVSCKASGGTFSSYAISWVRQAPGQGLEWMGGIIPIFGTANYAQKFQGRVTITADESTSTAYMELSSLRSEDTAVYYCARHTNYITVFDYWGQGTLVTVSSGGGGSGGGGSGGGGSAQSVLTQPPSASGTPGQRVTISCSGSSSNIGSNTVNWYQQLPGTAPKLLIYSNNQRPSGVPDRFSGSKSGTSASLAISGLQSEDEADYYCAAWDHHWEQVVFGGGTKLTVL ; Binding fold change [(HCV protease + Simeprevir binding)/HCV protease alone] = 15.7

Hello, the source for this data is patent US20220380801A1, in case you need it.
